Biological target: 14-3-3ζ:BAD-112-136F interactions (Homo sapiens, UniProt P63104)
Construct: expressed in transfected cells; host or cells: NIH-3T3 fibroblasts, bi-directional pBI-CMV1 plasmid
Sequence (P63104 whole entry): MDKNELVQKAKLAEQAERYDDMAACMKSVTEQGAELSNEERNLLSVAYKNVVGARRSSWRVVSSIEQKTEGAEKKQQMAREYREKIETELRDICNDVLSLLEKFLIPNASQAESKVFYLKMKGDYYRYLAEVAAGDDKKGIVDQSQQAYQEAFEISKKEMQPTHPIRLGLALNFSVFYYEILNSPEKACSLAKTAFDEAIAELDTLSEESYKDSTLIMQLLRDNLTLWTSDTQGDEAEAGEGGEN
Test: BRET sensor screen for disruption of 14-3-3ζ-Rluc8:BAD-112-136F-mCitrine in living NIH-3T3 cells
Format: cell-based, murine
Design: dose or concentration left out as unconfirmed
Conditions: NIH3T3, 3 h, NIH-3T3 cells; hits from the primary screen; read-out: BRET reduction on NIH-3T3
Listed here are compounds together with their documented inhibition.

# compound, inhibition
records = [
    ("CC1(C)[C@@H](O)CC[C@]2(C)[C@H]3C(=O)C=C4[C@@H]5C[C@@](C)(C(=O)O)CC[C@]5(C)CC[C@@]4(C)[C@]3(C)CC[C@@H]12 [Enoxolone]", "42.9%"),
    ("CC(C)Oc1ccc(-c2nc(-c3cccc4c3CC[C@@H]4NCCO)no2)cc1C#N [Ozanimod (RPC1063), Ozanimod]", "29.4%"),
    ("CC(C)OC(=O)CCC/C=C\\C[C@@H]1[C@@H](CC[C@@H](O)CCc2ccccc2)[C@H](O)C[C@@H]1O [Latanoprost]", "29.5%"),
    ("COc1ccc2c(O[C@@H]3C[C@H]4C(=O)N[C@]5(C(=O)NS(=O)(=O)C6CC6)C[C@H]5/C=C\\CCCCN(C)C(=O)[C@@H]4C3)cc(-c3nc(C(C)C)cs3)nc2c1C [Simeprevir]", "42.6%"),
    ("Clc1ccccc1C(c1ccccc1)(c1ccccc1)n1ccnc1 [Clotrimazole]", "30.1%"),
    ("Clc1ccc(C(Cn2ccnc2)OCc2c(Cl)cccc2Cl)c(Cl)c1 (centres unmarked) [Isoconazole nitrate]", "45.1%"),
    ("CCc1cc(/C(C)=N/OCc2ccc(C3CCCCC3)c(C(F)(F)F)c2)ccc1CN1CC(C(=O)O)C1 [BAF312 (Siponimod), Siponimod]", "28.7%"),
    ("c1ccc(-c2ccc(C(c3ccccc3)n3ccnc3)cc2)cc1 (centres unmarked) [Bifonazole]", "32.1%"),
    ("CCCCCCCCCCCCCCCC[N+](C)(C)CCN(Cc1ccc(OC)cc1)c1ncccn1 [Thonzonium Bromide]", "38.3%"),
    ("CO/N=C1\\C[C@]2(C[C@@H]3C[C@@H](C/C=C(\\C)C[C@@H](C)/C=C/C=C4\\CO[C@@H]5[C@H](O)C(C)=C[C@@H](C(=O)O3)[C@]45O)O2)O[C@H](/C(C)=C/C(C)C)[C@H]1C [Moxidectin]", "44%"),
    ("Cc1cc(Nc2ncc(Cl)c(Nc3ccccc3S(=O)(=O)C(C)C)n2)c(OC(C)C)cc1C1CCNCC1 [LDK378]", "46.5%"),
    ("CC[C@H](c1ccc(O)cc1)[C@@H](CC)c1ccc(O)cc1 [Hexestrol]", "36.7%"),
    ("C[C@H](CCC(=O)O)[C@H]1CC[C@H]2[C@@H]3CC[C@@H]4C[C@H](O)CC[C@]4(C)[C@H]3CC[C@]12C [Lithocholic Acid]", "40.1%"),
    ("C#C[C@]1(O)CC[C@H]2[C@@H]3CCC4=CCCC[C@@H]4[C@H]3C(=C)C[C@@]21CC [Desogestrel]", "40.6%"),
]

====

Tested on: HT-29 cells
Assay: Hoechst/propidium iodide cell death assay in HT-29
Assay type: cell-based, human
Details: Homo sapiens, HT-29, 48 h, read-out: Percentage of cell death % 48h, HT-29
Numbered stars: 1 amine (or outer) side, 2 acyl side, 3 side chain; on linkers, the order of the positions; unused ones are H or OH. Bridge positions count the residues as written; N and C are the ends. Square brackets hold non-standard residues; d marks the D form. Peptide text beside a SMILES is read from it. * marks the point of attachment. pTerphenylCO(4''-OnC5H11) = CCCCCOc1ccc(-c2ccc(-c3ccc(C(=O)*)cc3)cc2)cc1; Orn(4R-OH,5R-OH) = O=C([C@H](C[C@@H](O)[C@@H](O)N[*:3])N[*:1])[*:2]; hTyr(3S-OH,4S-OH) = N[C@H](C(=O)O)[C@H](O)[C@@H](O)c1ccc(O)cc1; Pro(3S-OH,4S-Me) = C[C@H]1CN[C@H](C(=O)O)[C@H]1O; Hyp = O=C(O)[C@@H]1C[C@@H](O)CN1

# compound, cytotoxicity at 20 µM / %
data = [
    ("CCCCCCCCCCCCCCCC[n+]1ccccc1 [Cetylpyridinium Chloride]", 76.9),
    ("COc1cc(C)c(/C=C/C(C)=C/C=C/C(C)=C/C(=O)O)c(C)c1C [Acitretin]", 1.82),
    ("CCCCCOc1ccc(-c2ccc(-c3ccc(C(=O)N[C@H]4C[C@@H](O)[C@@H](O)NC(=O)[C@@H]5[C@@H](O)[C@@H](C)CN5C(=O)[C@H]([C@@H](C)O)NC(=O)[C@H]([C@H](O)[C@@H](O)c5ccc(O)cc5)NC(=O)[C@@H]5C[C@@H](O)CN5C(=O)[C@H]([C@@H](C)O)NC4=O)cc3)cc2)cc1 [Anidulafungin] ({pTerphenylCO(4''-OnC5H11)}-[Orn(4R-OH,5R-OH)]T[Hyp][hTyr(3S-OH,4S-OH)]T[Pro(3S-OH,4S-Me)]; lactam 1-C)", 7.05),
    ("C[C@H]1O[C@@H](O[C@H]2CC[C@@]3(C)[C@@H](CC[C@]4(C)[C@@H]3C=C[C@]35OC[C@@]6(CCC(C)(C)C[C@H]63)[C@@H](O)C[C@]54C)[C@]2(C)CO)[C@H](O)[C@@H](O[C@@H]2O[C@H](CO)[C@@H](O)[C@H](O)[C@H]2O)[C@H]1O [Saikosaponin A]", 87.6),
    ("Cc1ccc(C(=O)N(CCCN)[C@@H](c2nc3cc(Cl)ccc3c(=O)n2Cc2ccccc2)C(C)C)cc1 [Ispinesib (SB-715992), Ispinesib]", 86.7),
]

====

Tested on: HT-29 cells
Assay: Hoechst/propidium iodide cell death assay in HT-29
Format: cell-based, human
Conditions: Homo sapiens, HT-29, 48 h, HT-29; 48h; 20 μM; read-out: Percentage of cell death % 48h, HT-29
Let's look at some molecules and their measured cytotoxicity at 20 µM.
readout: cytotoxicity at 20 µM (%)

# molecule, value units, readout value
measured = [
    ("C=C[C@@H]1C[C@]1(NC(=O)[C@@H]1C[C@@H]2CN1C(=O)[C@H](C(C)(C)C)NC(=O)O[C@@H]1C[C@H]1CCCCCc1nc3ccc(OC)cc3nc1O2)C(=O)NS(=O)(=O)C1CC1", "%", 2.55),
    ("NC(=O)N1CCC(CC(=O)N2CCC([C@H]3c4ncc(Br)cc4CCc4cc(Cl)cc(Br)c43)CC2)CC1", "%", 1.7),
    ("CCOC(=O)N1CCC(=C2c3ccc(Cl)cc3CCc3cccnc32)CC1", "%", 3.3),
    ("CCCSc1nc(N[C@@H]2C[C@H]2c2ccc(F)c(F)c2)c2nnn([C@@H]3C[C@H](OCCO)[C@@H](O)[C@H]3O)c2n1", "%", 3.67),
    ("C[C@@H](O[C@H]1OCCN(Cc2n[nH]c(=O)[nH]2)[C@H]1c1ccc(F)cc1)c1cc(C(F)(F)F)cc(C(F)(F)F)c1 [Aprepitant]", "%", 3.76),
    ("CCCCCCCCCCCCCCCC[N+](C)(C)CCN(Cc1ccc(OC)cc1)c1ncccn1 [Thonzonium Bromide]", "%", 94.7),
    ("CC/C(=C(/CC)c1ccc(O)cc1)c1ccc(O)cc1", "%", 2.76),
]

====

Target: 14-3-3ζ:BAD-112-136F interactions (Homo sapiens)
Construct: expressed in transfected cells; host or cells: NIH-3T3 fibroblasts, bi-directional pBI-CMV1 plasmid
Assay: BRET sensor screen for disruption of 14-3-3ζ-Rluc8:BAD-112-136F-mCitrine in living NIH-3T3 cells
Assay type: cell-based, murine
Conditions: NIH3T3, 3 h, NIH-3T3 expressing BRET sensor; 20 µM, 3 h; read-out: BRET reduction on NIH-3T3
Structures can show the parent of a compound that is named as a salt.
Label condition met when inhibition at 20 µM is at or above 40%; otherwise label condition not met.

# compound, tested system, class name
data = [
    ("Clc1ccc(C(Cn2ccnc2)OCc2csc3c(Cl)cccc23)c(Cl)c1 (centres unmarked) [Sertaconazole nitrate]", "14-3-3ζ:BAD-112-136F interactions (Homo sapiens)", "condition met"),
    ("Cc1cc(Nc2ncc(Cl)c(Nc3ccccc3S(=O)(=O)C(C)C)n2)c(OC(C)C)cc1C1CCNCC1 [LDK378]", "14-3-3ζ:BAD-112-136F interactions (Homo sapiens)", "condition met"),
    ("CC1(C)Cc2c(-c3ccccc3)c(-c3ccc(Cl)cc3)c(CC(=O)O)n2C1 [Licofelone]", "14-3-3ζ:BAD-112-136F interactions (Homo sapiens)", "condition not met"),
    ("OC1(c2ccc(Cl)c(C(F)(F)F)c2)CCN(CCCC(c2ccc(F)cc2)c2ccc(F)cc2)CC1 [Penfluridol]", "14-3-3ζ:BAD-112-136F interactions (Homo sapiens)", "condition met"),
    ("CC(C)Oc1ccc(-c2nc(-c3cccc4c3CC[C@@H]4NCCO)no2)cc1C#N [Ozanimod (RPC1063), Ozanimod]", "14-3-3ζ:BAD-112-136F interactions (Homo sapiens)", "condition not met"),
    ("O=C1Cc2cc(CCN3CCN(c4nsc5ccccc45)CC3)c(Cl)cc2N1 [Ziprasidone hydrochloride monohydrate]", "14-3-3ζ:BAD-112-136F interactions (Homo sapiens)", "condition not met"),
    ("C[C@@H](O[C@H]1OCCN(Cc2n[nH]c(=O)[nH]2)[C@H]1c1ccc(F)cc1)c1cc(C(F)(F)F)cc(C(F)(F)F)c1 [Aprepitant]", "14-3-3ζ:BAD-112-136F interactions (Homo sapiens)", "condition not met"),
    ("CCOc1cc(CC(=O)N[C@@H](CC(C)C)c2ccccc2N2CCCCC2)ccc1C(=O)O [Repaglinide]", "14-3-3ζ:BAD-112-136F interactions (Homo sapiens)", "condition not met"),
    ("CC(C)=CCC/C(C)=C/CC/C(C)=C/CSc1ccccc1C(=O)O [Salirasib]", "14-3-3ζ:BAD-112-136F interactions (Homo sapiens)", "condition met"),
    ("C=C(c1ccc(C(=O)O)cc1)c1cc2c(cc1C)C(C)(C)CCC2(C)C [Bexarotene]", "14-3-3ζ:BAD-112-136F interactions (Homo sapiens)", "condition not met"),
    ("COc1cc(C(=O)NS(=O)(=O)c2ccccc2C)ccc1Cc1cn(C)c2ccc(NC(=O)OC3CCCC3)cc12 [Zafirlukast]", "14-3-3ζ:BAD-112-136F interactions (Homo sapiens)", "condition not met"),
    ("CC(C)(C)c1ccc(C(O)CCCN2CCC(C(O)(c3ccccc3)c3ccccc3)CC2)cc1 (centres unmarked) [Terfenadine]", "14-3-3ζ:BAD-112-136F interactions (Homo sapiens)", "condition met"),
    ("CCCCCCCCCCCCCCCC[N+](C)(C)CCN(Cc1ccc(OC)cc1)c1ncccn1 [Thonzonium Bromide]", "14-3-3ζ:BAD-112-136F interactions (Homo sapiens)", "condition not met"),
    ("CSc1ccc2c(c1)N(CCC1CCCCN1C)c1ccccc1S2 (centres unmarked) [Thioridazine HCl]", "14-3-3ζ:BAD-112-136F interactions (Homo sapiens)", "condition not met"),
    ("Clc1ccc(COC(Cn2ccnc2)c2ccc(Cl)cc2Cl)cc1 (centres unmarked) [Econazole nitrate]", "14-3-3ζ:BAD-112-136F interactions (Homo sapiens)", "condition met"),
    ("C[C@H](CCC(=O)O)[C@H]1CC[C@H]2[C@@H]3[C@H](O)C[C@@H]4C[C@H](O)CC[C@]4(C)[C@H]3CC[C@]12C [Chenodeoxycholic Acid]", "14-3-3ζ:BAD-112-136F interactions (Homo sapiens)", "condition not met"),
]
